assay: Substrate activity at PTS in CHO cells assessed as reduction in cell viability after 48 hrs in presence of aminoguanidine by MTS assay; type: cell-based; conditions: Cricetulus griseus
EXPERIMENTAL_READOUT: pIC50
Hey, just a heads up that pIC50 is the negative log base 10 of the concentration in molar.

Q: Reported pIC50, compound Cl.Cl.Cl.NCCCNCCCNCCC1CCCCCCCCCCCCCC1 : ____
Result: 5.60

Q: Reported pIC50, compound Cl.Cl.Cl.Cl.NCCNCCNCCNCC1CCCCCCCCCCCCCC1 : ____
Result: 5.63

Q: Reported pIC50, compound Cl.Cl.NCCNCC1CCCCCCCCCCCCCC1 : ____
Result: 5.58

Q: Reported pIC50, compound Cl.Cl.Cl.NCCNCCNCC1CCCCCCCCCCCCCC1 : ____
Result: 5.61

Q: Reported pIC50, compound Cl.Cl.NCCNCc1c2ccccc2cc2ccccc12 : ____
Result: 5.71
